Test Settings: buffer; pH 7.4; 200.0 µM
Endpoint Label: solubility kinetic (µg/mL)
Your answer should be a plain number; it is taken to be in µg/mL.

Consider the reported solubility kinetic for these molecules:
## Input Looking for the measured solubility kinetic of CCOC(=O)c1ccc(S(=O)(=O)NC2CC2)cc1 , can you help?
## Output 32.4

## Input Looking for the measured solubility kinetic of COc1ccccc1-n1ccnc1SCC(=O)NC1CCCC1 , can you help?
## Output 45.3

## Input Looking for the measured solubility kinetic of Cc1nc(SCC(=O)NC2CCCC2)[nH]c(=O)c1C , can you help?
## Output 38.4

## Input Looking for the measured solubility kinetic of NC(=O)c1ccc(NC(=O)COC(=O)CC2CC3CCC2C3)cc1 (stereo not given) , can you help?
## Output 13

## Input Looking for the measured solubility kinetic of CCc1nc(N=C(N)N)nc2ccccc12 , can you help?
## Output 28

***
## Input Looking for the measured solubility kinetic of COc1cccc(C(=O)Nc2ccc3c(c2)OCO3)c1OC , can you help?
## Output 36.8

## Input Looking for the measured solubility kinetic of O=[N+]([O-])c1cnc2ccccn12 , can you help?
## Output 22.1

## Input Looking for the measured solubility kinetic of CCOC(=O)c1cnc(C(F)(F)F)nc1Oc1ccccc1 , can you help?
## Output 11.7

## Input Looking for the measured solubility kinetic of COc1ccc(OCC2CCNCC2)cc1.Cl , can you help?
## Output 36.5

## Input Looking for the measured solubility kinetic of Cc1c(Cl)cccc1NC(=S)NCCc1ccc(F)cc1 , can you help?
## Output 1.2

## Input Looking for the measured solubility kinetic of O=C(Nc1ccc(Cl)cc1)Nc1ccc(Oc2cccnc2)nc1 , can you help?
## Output 0.7

## Input Looking for the measured solubility kinetic of Cc1cc(Br)ccc1NC(=O)CSCc1c(C)noc1C , can you help?
## Output 30.1

## Input Looking for the measured solubility kinetic of COc1ccc(CCNC(=O)CCc2cn(C)c3ccccc23)c(OC)c1 , can you help?
## Output 16.9

Reference source: PubChem BioAssay AID1996
